Target: Gastrin-releasing peptide receptor (Rattus norvegicus) (UniProt P52500)
Sequence (P52500 whole entry): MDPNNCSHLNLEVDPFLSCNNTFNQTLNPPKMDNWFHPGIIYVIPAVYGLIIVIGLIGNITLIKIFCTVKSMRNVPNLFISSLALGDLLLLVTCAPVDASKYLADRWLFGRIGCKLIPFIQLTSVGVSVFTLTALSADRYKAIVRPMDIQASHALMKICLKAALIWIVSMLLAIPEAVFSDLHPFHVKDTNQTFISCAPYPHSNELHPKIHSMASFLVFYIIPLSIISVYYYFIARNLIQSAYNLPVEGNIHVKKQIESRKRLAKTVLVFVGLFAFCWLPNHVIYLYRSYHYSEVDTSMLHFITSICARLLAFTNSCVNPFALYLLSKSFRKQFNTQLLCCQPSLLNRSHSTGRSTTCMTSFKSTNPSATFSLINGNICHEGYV
Experiment: Tested for the inhibition of bombesin-stimulated amylase release in rat pranceatic acini
Format: functional
Where a SMILES comes first, the peptide text is derived from it. The star is where a group is joined. X2 = CC(=O)NC[C@H](CC(C)C)N*
Quantity: Release (%)
Answer with a number only, understood to be in %.

Example entries begin here.
{"columns": ["Compound", "Study system", "Observed"],
 "data": [
  ["CSCC[C@H](NC[C@H](CC(C)C)NC(=O)[C@H](Cc1c[nH]cn1)NC(=O)CNC(=O)[C@@H](NC(=O)[C@H](C)NC(=O)[C@H](Cc1c[nH]c2ccccc12)NC(=O)[C@H](CC(N)=O)NC(=O)CN)C(C)C)C(N)=O", "Gastrin-releasing peptide receptor (Rattus norvegicus) (UniProt P52500)", 5.1],
  ["CC(=O)NC[C@H](CC(C)C)NC(=O)[C@H](Cc1c[nH]cn1)NC(=O)CNC(=O)[C@@H](NC(=O)[C@H](C)NC(=O)[C@H](Cc1c[nH]c2ccccc12)NC(=O)[C@H](CCC(N)=O)NC(=O)[C@H](N)Cc1ccccc1)C(C)C", "Gastrin-releasing peptide receptor (Rattus norvegicus) (UniProt P52500)", 3.3],
  ["CSCC[C@@H](C(N)=O)N(C=O)C[C@H](CC(C)C)NC(=O)[C@H](Cc1c[nH]cn1)NC(=O)CNC(=O)[C@@H](NC(=O)[C@H](C)NC(=O)[C@H](Cc1c[nH]c2ccccc12)NC(=O)[C@H](Cc1c[nH]cn1)NC(=O)[C@H](N)Cc1ccccc1)C(C)C", "Gastrin-releasing peptide receptor (Rattus norvegicus) (UniProt P52500)", 3.7],
  ["CSCC[C@@H](C(N)=O)N(C=O)C[C@H](CC(C)C)NC(=O)[C@H](Cc1c[nH]cn1)NC(=O)CNC(=O)[C@@H](NC(=O)[C@H](C)NC(=O)[C@H](Cc1c[nH]c2ccccc12)NC(=O)[C@H](Cc1c[nH]cn1)NC(=O)[C@H](CC(N)=O)NC(=O)CN)C(C)C", "Gastrin-releasing peptide receptor (Rattus norvegicus) (UniProt P52500)", 3.5],
  ["CC(=O)NC[C@H](CC(C)C)NC(=O)[C@H](Cc1c[nH]cn1)NC(=O)CNC(=O)[C@@H](NC(=O)[C@H](C)NC(=O)[C@H](Cc1c[nH]c2ccccc12)NC(=O)[C@H](CCC(N)=O)NC(=O)[C@@H](Cc1ccccc1)NC(C)=O)C(C)C", "Gastrin-releasing peptide receptor (Rattus norvegicus) (UniProt P52500)", 3]
]}

Please report the recorded Release for CC(=O)NC[C@H](CC(C)C)NC(=O)[C@H](Cc1c[nH]cn1)NC(=O)CNC(=O)[C@@H](NC(=O)[C@H](C)NC(=O)[C@H](Cc1cn(C=O)c2ccccc12)NC(=O)[C@H](Cc1c[nH]cn1)NC(=O)[C@H](N)Cc1ccccc1)C(C)C . 3.2

Please report the recorded Release for CN[C@H](Cc1ccccc1)C(=O)N[C@@H](Cc1c[nH]cn1)C(=O)N[C@@H](Cc1c[nH]c2ccccc12)C(=O)N[C@@H](C)C(=O)N[C@H](C(=O)NCC(=O)N[C@@H](Cc1c[nH]cn1)C(=O)N[C@@H](CC(C)C)CN(C=O)[C@@H](CCSC)C(N)=O)C(C)C . 3.5

Please report the recorded Release for CC(=O)NC[C@H](CC(C)C)NC(=O)[C@H](Cc1c[nH]cn1)NC(=O)CNC(=O)[C@@H](NC(=O)[C@H](C)NC(=O)[C@H](Cc1c[nH]c2ccccc12)NC(=O)[C@H](Cc1c[nH]cn1)NC(=O)[C@@H](N)CCC(N)=O)C(C)C (H-QHWAVGH-X2) . 3.6

###

Entries and their measured Release follow.
Target: Gastrin-releasing peptide receptor (Rattus norvegicus)
Assay: Tested for the inhibition of Bombesin-stimulated amylase release at 5 uM concentration in the presence of 0.2 nM of bombesin in rat pranceatic acini
Type: functional
Where a SMILES comes first, the peptide text is derived from it. The star is where a group is joined. X1 = CSCC[C@H](NC[C@H](CC(C)C)N*)C(N)=O
Answer with a number only, understood to be in %.

{"columns": ["Compound", "Quantity", "Unit string", "Observed"],
 "data": [
  ["CC(=O)NC[C@H](CC(C)C)NC(=O)[C@H](Cc1c[nH]cn1)NC(=O)CNC(=O)[C@@H](NC(=O)[C@H](C)NC(=O)[C@H](Cc1c[nH]c2ccccc12)NC(=O)[C@H](Cc1c[nH]cn1)NC(=O)[C@H](N)Cc1ccccc1)C(C)C", "Release", "%", 3.4]
]}

--- query ---
Please report the recorded Release for CSCC[C@H](NC[C@H](CC(C)C)NC(=O)[C@H](Cc1c[nH]cn1)NC(=O)CNC(=O)[C@@H](NC(=O)[C@H](C)NC(=O)[C@H](Cc1c[nH]c2ccccc12)NC(C)=O)C(C)C)C(N)=O (Ac-WAVGH-X1) . 16.1

###

Entries and their measured Release follow.
Molecular target: UniProtKB P52500
Assay: Tested for the inhibition of Bombesin-stimulated amylase release at 50 nM concentration in rat pranceatic acini
Assay type: functional
Answer with a number only, understood to be in %.

Example entries begin here.
{"columns": ["Smiles repr", "Unit string", "Observed"],
 "data": [
  ["CCCCC[C@H](CC(C)C)NC(=O)[C@H](Cc1c[nH]cn1)NC(=O)CNC(=O)[C@@H](NC(=O)[C@H](C)NC(=O)[C@H](Cc1c[nH]c2ccccc12)NC(=O)[C@@H](Cc1c[nH]cn1)NC(=O)C(C)(C)C)C(C)C", "%", 5.1],
  ["CSCC[C@H](NC[C@H](CC(C)C)NC(=O)[C@H](Cc1c[nH]cn1)NC(=O)CNC(=O)[C@@H](NC(=O)[C@H](C)NC(=O)[C@H](Cc1c[nH]c2ccccc12)NC(=O)[C@H](N)Cc1ccccc1)C(C)C)C(N)=O", "%", 5.3]
]}

--- query ---
Please report the recorded Release for CC(C)C[C@@H](CN[C@@H](CC(C)C)C(N)=O)NC(=O)[C@H](Cc1c[nH]cn1)NC(=O)CNC(=O)[C@@H](NC(=O)[C@H](C)NC(=O)[C@H](Cc1c[nH]c2ccccc12)NC(=O)[C@H](CCC(N)=O)NC(=O)[C@H](CC(N)=O)NC(=O)CNC(=O)[C@H](CC(C)C)NC(=O)[C@H](CCCN=C(N)N)NC(=O)[C@H](CCC(N)=O)NC(=O)[C@@H]1CCC(=O)N1)C(C)C . 3
